ED50 by entry:
System: mice
procedure-summary: Muscle relaxing activity, traction method (oral, mice)
Format: in vivo
condition-parameters: Mus musculus, 10, 20 and 30 minutes after dosing
readout-label: ED50 (mg/kg)

{"compound": "CN1C(=O)CCS(=O)(=O)C1c1ccc(Cl)cc1 (stereo not drawn) [Chlormezanone]", "comparator": "=", "numeric-result": 208}
{"compound": "Cc1ccccc1-n1c(CF)nc2ccc(N)cc2c1=O [quinazolinone derivative [I]]", "comparator": "=", "numeric-result": 20.7}
{"compound": "Cc1ccccc1-n1c(CF)nc2ccc([N+](=O)[O-])cc2c1=O", "comparator": ">", "numeric-result": 100}
{"compound": "Cc1ccccc1OCC(O)CO (stereo not drawn) [Mephenesin, 3-(o-tolyloxy)-1,2-propanediol]", "comparator": "=", "numeric-result": 527}
{"compound": "Cc1ccccc1-n1c(C)nc2ccc(N)cc2c1=O", "comparator": "=", "numeric-result": 24}
{"compound": "Cc1ccccc1-n1c(CF)nc2ccccc2c1=O", "comparator": "=", "numeric-result": 138}

---

procedure-summary: Hypnotic activity, loss of righting reflex (oral, mice); therapeutic index
Type: in vivo
condition-parameters: mouse, in vivo, po, HD50 / ED50 rotating rod method; mice, oral; read-out: Therapeutic index D/C
readout-label: selectivity ratio

{"compound": "Cc1ccccc1-n1c(CF)nc2ccccc2c1=O", "readout-label": "selectivity ratio", "numeric-result": 1.29}
{"compound": "Cc1ccccc1OCC(O)CO (stereo not shown)", "readout-label": "selectivity ratio", "numeric-result": 1.66}
{"compound": "Cc1ccccc1-n1c(CF)nc2ccc(N)cc2c1=O [quinazolinone derivative [I]]", "readout-label": "selectivity ratio", "numeric-result": 2.37}
{"compound": "CN1C(=O)CCS(=O)(=O)C1c1ccc(Cl)cc1 (stereo not shown)", "readout-label": "selectivity ratio", "numeric-result": 1.74}

---

Tested on: cardiazol-induced convulsive death in mice
procedure-summary: Anti-cardiazol activity, protection from cardiazol-induced convulsive death
Type: in vivo
condition-parameters: Mus musculus; oral, mice; 125 mg of cardiazol s.c. 30 minutes after dosing; protection at 60 minutes
Mark each entry true if its ED50 sits below 30 mg/kg, and false for all others.

{"compound": "Cc1ccccc1OCC(O)CO (centres unmarked)", "class-label": "false"}
{"compound": "Cc1ccccc1-n1c(C)nc2ccc(N)cc2c1=O", "class-label": "true"}
{"compound": "Cc1ccccc1-n1c(CF)nc2ccccc2c1=O", "class-label": "false"}
{"compound": "CN1C(=O)CCS(=O)(=O)C1c1ccc(Cl)cc1 (centres unmarked)", "class-label": "true"}
{"compound": "Cc1ccccc1-n1c(CF)nc2ccc(N)cc2c1=O [quinazolinone derivative [I]]", "class-label": "true"}

---

procedure-summary: Acute toxicity (oral, mice, 72 hours); safety margin
Format: in vivo
condition-parameters: mouse, in vivo, po, LD50 / ED50 traction method; mice, oral; read-out: Safety margin E/A

{"molecule": "Cc1ccccc1OCC(O)CO (stereo not shown)", "selectivity ratio": 3.8}
{"molecule": "CN1C(=O)CCS(=O)(=O)C1c1ccc(Cl)cc1 (stereo not shown)", "selectivity ratio": 6.5}
{"molecule": "Cc1ccccc1-n1c(CF)nc2ccccc2c1=O", "selectivity ratio": 5.1}
{"molecule": "Cc1ccccc1-n1c(CF)nc2ccc(N)cc2c1=O [quinazolinone derivative [I]]", "selectivity ratio": 25.5}

---

Each entry below carries its reported selectivity ratio.
procedure-summary: Acute toxicity (oral, mice, 72 hours); safety margin
Type: in vivo
condition-parameters: mouse, in vivo, po, LD50 / ED50 inclined plate method; mice, oral; read-out: Safety margin E/B

{"compound": "CN1C(=O)CCS(=O)(=O)C1c1ccc(Cl)cc1 (stereo not shown)", "selectivity ratio": 8.6}
{"compound": "Cc1ccccc1-n1c(CF)nc2ccc(N)cc2c1=O [quinazolinone derivative [I]]", "selectivity ratio": 27.4}
{"compound": "Cc1ccccc1-n1c(CF)nc2ccccc2c1=O", "selectivity ratio": 12.1}
{"compound": "Cc1ccccc1OCC(O)CO (stereo not shown)", "selectivity ratio": 3.7}

---

# log10 of ED50 per record follows
Tested on: mice
procedure-summary: Muscle relaxing activity, rotating rod method (oral, mice)
Type: in vivo
condition-parameters: Mus musculus, 0.5 h, 30 minutes after dosing, read-out: Muscle relaxing activity ED50 (C)
readout-label: log10 of ED50 (log10 of the value in mg/kg)

{"molecule": "Cc1ccccc1-n1c(CF)nc2ccccc2c1=O", "numeric-result": 1.83}
{"molecule": "Cc1ccccc1-n1c(CF)nc2ccc(N)cc2c1=O [quinazolinone derivative [I]]", "numeric-result": 1.35}
{"molecule": "CN1C(=O)CCS(=O)(=O)C1c1ccc(Cl)cc1 (stereo not drawn) [Chlormezanone]", "numeric-result": 2.35}
{"molecule": "Cc1ccccc1-n1c(C)nc2ccc(N)cc2c1=O", "numeric-result": 1.35}
{"molecule": "Cc1ccccc1OCC(O)CO (stereo not drawn) [Mephenesin, 3-(o-tolyloxy)-1,2-propanediol]", "numeric-result": 2.70}

---

procedure-summary: Acute toxicity (oral, mice, 72 hours); safety margin
Format: in vivo
condition-parameters: mouse, in vivo, po, LD50 / ED50 rotating rod method; mice, oral; read-out: Safety margin E/C

{"molecule": "Cc1ccccc1-n1c(CF)nc2ccccc2c1=O", "selectivity ratio": 10.5}
{"molecule": "CN1C(=O)CCS(=O)(=O)C1c1ccc(Cl)cc1 (stereo not shown)", "selectivity ratio": 6.1}
{"molecule": "Cc1ccccc1OCC(O)CO (stereo not shown)", "selectivity ratio": 4.1}
{"molecule": "Cc1ccccc1-n1c(CF)nc2ccc(N)cc2c1=O [quinazolinone derivative [I]]", "selectivity ratio": 23.6}

---

procedure-summary: Hypnotic activity, loss of righting reflex (oral, mice); therapeutic index
Assay type: in vivo
condition-parameters: mouse, in vivo, po, HD50 / ED50 traction method; mice, oral; read-out: Therapeutic index D/A

{"molecule": "Cc1ccccc1-n1c(CF)nc2ccccc2c1=O", "selectivity ratio": 0.63}
{"molecule": "Cc1ccccc1OCC(O)CO (stereo not shown)", "selectivity ratio": 1.56}
{"molecule": "CN1C(=O)CCS(=O)(=O)C1c1ccc(Cl)cc1 (stereo not shown)", "selectivity ratio": 1.86}
{"molecule": "Cc1ccccc1-n1c(CF)nc2ccc(N)cc2c1=O [quinazolinone derivative [I]]", "selectivity ratio": 2.57}

---

procedure-summary: Hypnotic activity, loss of righting reflex (oral, mice); therapeutic index
Format: in vivo
condition-parameters: mouse, in vivo; oral, mice; loss of righting reflex for more than 20 seconds in 50 % of the mice; read-out: Side effect: Hypnotic activity HD50 (D)

{"compound": "Cc1ccccc1-n1c(CF)nc2ccccc2c1=O", "TD50": "87.3 mg/kg"}
{"compound": "Cc1ccccc1-n1c(CF)nc2ccc([N+](=O)[O-])cc2c1=O", "TD50": "> 100 mg/kg"}
{"compound": "CN1C(=O)CCS(=O)(=O)C1c1ccc(Cl)cc1 (stereo not drawn)", "TD50": "386 mg/kg"}
{"compound": "Cc1ccccc1-n1c(C)nc2ccc(N)cc2c1=O", "TD50": "33.7 mg/kg"}
{"compound": "Cc1ccccc1-n1c(CF)nc2ccc(N)cc2c1=O [quinazolinone derivative [I]]", "TD50": "53.1 mg/kg"}
{"compound": "Cc1ccccc1OCC(O)CO (stereo not drawn)", "TD50": "824 mg/kg"}

---

procedure-summary: Hypnotic activity, loss of righting reflex (oral, mice); therapeutic index
Type: in vivo
condition-parameters: mouse, in vivo, po, HD50 / ED50 inclined plate method; mice, oral; read-out: Therapeutic index D/B
Method: (D) :A drug was administered orally to mice. The hypnotic activity of the drug was determined by the number of mice which lost righting reflex for more than 20 seconds. HD50 of the drug was estimated as the dose which was required to produce the losing of righting reflex in 50 % of th Therapeutic index and Safety margin: Said index and margin were calculate

{"molecule": "CN1C(=O)CCS(=O)(=O)C1c1ccc(Cl)cc1 (stereo not shown) [Chlormezanone]", "selectivity ratio": 2.47}
{"molecule": "Cc1ccccc1OCC(O)CO (stereo not shown) [Mephenesin, 3-(o-tolyloxy)-1,2-propanediol]", "selectivity ratio": 1.5}
{"molecule": "Cc1ccccc1-n1c(CF)nc2ccccc2c1=O", "selectivity ratio": 1.48}
{"molecule": "Cc1ccccc1-n1c(CF)nc2ccc(N)cc2c1=O [quinazolinone derivative [I]]", "selectivity ratio": 2.75}
